Target: Ephrin type-A receptor 3 (Homo sapiens) (UniProt P29320)
Sequence (P29320 whole entry): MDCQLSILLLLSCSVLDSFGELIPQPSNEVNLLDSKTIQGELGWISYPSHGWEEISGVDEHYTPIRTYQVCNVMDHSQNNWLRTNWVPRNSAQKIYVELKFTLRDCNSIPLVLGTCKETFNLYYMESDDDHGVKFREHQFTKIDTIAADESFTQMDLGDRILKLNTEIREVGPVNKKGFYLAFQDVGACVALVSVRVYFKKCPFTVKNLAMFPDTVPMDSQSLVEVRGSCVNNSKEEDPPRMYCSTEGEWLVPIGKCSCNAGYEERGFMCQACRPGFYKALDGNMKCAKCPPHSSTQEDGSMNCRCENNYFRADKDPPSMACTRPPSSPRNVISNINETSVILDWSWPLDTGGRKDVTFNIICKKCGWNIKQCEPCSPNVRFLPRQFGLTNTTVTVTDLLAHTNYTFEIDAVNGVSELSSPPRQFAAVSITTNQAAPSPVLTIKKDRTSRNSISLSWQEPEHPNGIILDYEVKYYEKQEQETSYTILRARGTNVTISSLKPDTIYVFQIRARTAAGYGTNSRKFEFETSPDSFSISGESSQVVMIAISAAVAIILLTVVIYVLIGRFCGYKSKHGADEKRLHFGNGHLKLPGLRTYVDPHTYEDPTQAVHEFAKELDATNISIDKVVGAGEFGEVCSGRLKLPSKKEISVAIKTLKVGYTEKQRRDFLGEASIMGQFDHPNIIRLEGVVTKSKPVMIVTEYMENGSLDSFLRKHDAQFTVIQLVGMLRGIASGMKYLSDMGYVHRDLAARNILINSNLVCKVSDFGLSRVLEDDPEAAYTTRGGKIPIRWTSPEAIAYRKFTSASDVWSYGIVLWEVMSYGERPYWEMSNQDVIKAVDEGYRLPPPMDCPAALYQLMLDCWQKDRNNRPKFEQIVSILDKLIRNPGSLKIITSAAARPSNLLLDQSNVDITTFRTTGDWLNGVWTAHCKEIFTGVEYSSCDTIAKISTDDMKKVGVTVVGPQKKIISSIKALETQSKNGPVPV
Details: at 1 µM
MEASURED PROPERTY: inhibition (%)
Report as a plain number; the unit % is understood.

SMILES STRING	OBSERVED MEASUREMENT
COc1cc(C=NNc2ncnc3c2cnn3-c2ccccc2)ccc1O	8.46

Provide the documented inhibition with Ephrin type-A receptor 3 (Homo sapiens) (UniProt P29320) as the system for Cn1cc(C=C2C(=O)Nc3cccnc32)c2ccccc21
4.83

inhibition of CCn1c(-c2nonc2N)nc2c(N3CCCC3)nccc21 on Ephrin type-A receptor 3 (Homo sapiens) (UniProt P29320)?
-2.29

Requested read-out inhibition, target or system Ephrin type-A receptor 3 (Homo sapiens) (UniProt P29320), entry O=C(Nc1n[nH]c2nc(-c3ccco3)c(Br)cc12)C1CC1
4.24

Checklist item: inhibition tested on Ephrin type-A receptor 3 (Homo sapiens) (UniProt P29320), entry Nc1ncnc2occ(-c3ccc(NC(=O)Nc4cc(C(F)(F)F)cc(C(F)(F)F)c4)cc3)c12 , value?
14.6

Find the measured inhibition: item Cc1ccc(C(=O)NC2CCCCC2)cc1-c1ccc(C(=O)NCC2CC2)cc1 , target or system Ephrin type-A receptor 3 (Homo sapiens) (UniProt P29320).
5.14

# value lookup — system Ephrin type-A receptor 3 (Homo sapiens) (UniProt P29320), readout inhibition, item Cc1nn(C)c2cc(N(C)c3ccnc(Nc4cccc(S(N)(=O)=O)c4)n3)ccc12;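 note: mean inhibition value reported from the GSK PKIS kinase profiling screen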
16.5

----------
Quick list: inhibition per entry.
Target: High affinity nerve growth factor receptor (Homo sapiens) (UniProt P04629);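 note: each value is the mean percent inhibition of TRKA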
Sequence (P04629 33-796 limits assumed): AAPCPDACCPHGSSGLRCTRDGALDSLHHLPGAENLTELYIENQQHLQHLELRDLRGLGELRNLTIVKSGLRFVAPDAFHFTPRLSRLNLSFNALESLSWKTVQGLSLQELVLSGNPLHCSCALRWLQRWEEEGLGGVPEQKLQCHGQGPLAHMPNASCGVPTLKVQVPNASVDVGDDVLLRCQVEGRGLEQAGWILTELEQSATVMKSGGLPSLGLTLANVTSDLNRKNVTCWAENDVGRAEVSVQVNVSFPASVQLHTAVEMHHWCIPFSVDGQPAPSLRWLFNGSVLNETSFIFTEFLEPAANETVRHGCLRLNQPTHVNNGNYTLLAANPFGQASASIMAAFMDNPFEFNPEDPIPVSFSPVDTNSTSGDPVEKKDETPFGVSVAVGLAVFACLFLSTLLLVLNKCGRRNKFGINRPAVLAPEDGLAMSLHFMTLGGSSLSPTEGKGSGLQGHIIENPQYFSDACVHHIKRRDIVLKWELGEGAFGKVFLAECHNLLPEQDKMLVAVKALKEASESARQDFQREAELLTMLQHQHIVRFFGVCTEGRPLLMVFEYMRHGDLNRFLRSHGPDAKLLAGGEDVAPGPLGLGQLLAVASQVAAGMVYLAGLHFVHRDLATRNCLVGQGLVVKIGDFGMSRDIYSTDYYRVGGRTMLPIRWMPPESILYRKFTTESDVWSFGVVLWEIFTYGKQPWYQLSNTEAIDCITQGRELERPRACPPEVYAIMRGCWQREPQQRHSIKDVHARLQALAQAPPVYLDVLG
Settings: at 1 µM
Number in %, nothing else.

Worked cases, answers included:
SMILES STRING	ASSAYED TARGET	inhibition, %
O=C1NC(=O)C(c2ccccc2Cl)=C1Nc1cccc(O)c1	High affinity nerve growth factor receptor (Homo sapiens) (UniProt P04629)	0.59
Fc1cccc(COc2ccc(Nc3ncnc4sc(-c5cccs5)cc34)cc2Cl)c1	High affinity nerve growth factor receptor (Homo sapiens) (UniProt P04629)	2.88

Tell me the measured inhibition of Cc1nn(C)c2cc(N(C)c3ccnc(Nc4cccc(S(N)(=O)=O)c4)n3)ccc12 , please.
6.3

What value of measured inhibition is listed for NS(=O)(=O)c1ccc(N/N=C2\C(=O)Nc3ccc(C(=O)NCCc4c[nH]cn4)cc32)cc1 ?
14.9

I'd like to know its inhibition. The molecule in question is COc1cc2ncn(-c3cc(O[C@H](C)c4ccccc4Cl)c(C(N)=O)s3)c2cc1OC
12.4

Return reported inhibition; argument: Cc1cccc(-c2n[nH]cc2-c2ccc3ncccc3n2)n1
-0.2

// lookup inhibition for COc1ccc(-c2nn3ncccc3c2-c2ccnc(Nc3ccc(Cl)c(C(F)(F)F)c3)n2)cc1
-1.35

Would you mind telling me what inhibition value was observed for CS(=O)(=O)CCNCc1ccc(-c2ccc3ncnc(Nc4ccc(OCc5cccc(F)c5)c(C(F)(F)F)c4)c3c2)o1 ?
-0.52

# inhibition lookup, item CCn1c(-c2nonc2N)nc2cncc(C(=O)N3CC[C@H](N)C3)c21
2.78

Returns the measured inhibition for the input molecule. Input: COc1ccc(-c2ccncc2)cc1C(N)=O
6.42

Consider the molecule c1cnn2ncc(-c3ccnc(Nc4ccc5c(c4)OCCO5)n3)c2c1 and give its measured inhibition.
9.5

Suppose we examine the molecule Cc1cc(O)cc(C)c1/C=C/c1cncc(-c2nn[nH]n2)c1 ; what inhibition value has been reported?
3.5

Recorded inhibition for COc1cc(C=NNc2ncnc3c2cnn3-c2ccccc2)ccc1O , please?
14.3

Record request: inhibition value, item COc1ccc(COc2ccc(Cc3cnc(N)nc3N)cc2OC)cc1
50

I am curious: what inhibition value has been reported for O=C1NC(=O)C(c2cccc(Cl)c2)=C1Nc1ccc(O)c(Cl)c1 ?
2.57
